Value source: patent US20140179896A1

- target under test: human KDR/EpoR fusion (phKE8) on Ba/F3 cells (human, UniProt P35968 20-764; P19235 251-508, limits assumed)
- protocol: cell-based or functional assay
Parameter Inhibition of VEGF-induced proliferation, Ba/F3-KDR (IC50, nM): see the listing below.
Quick note: give the figure in nM, leave out the unit.

So what does the record say about Inhibition of VEGF-induced proliferation, Ba/F3-KDR (IC50, nM) for E26 (designed binder, Del 1-8 10Fn3 clone; Flag-tagged in vitro translated protein in the radioactive assay, His6-tagged E. coli protein in BIAcore and cell assays; tags left out) EVVAATPTSLLISWRHPHFPTRYYRITYGETGGNSPVQEFTVPLQPPTATISGLKPGVDYTITGYAVTVERNGRELMTPISINYRT ?
3.2

Follow-up entry: E29 (designed binder, Del 1-8 10Fn3 clone; Flag-tagged in vitro translated protein in the radioactive assay, His6-tagged E. coli protein in BIAcore and cell assays; tags left out) EVVAATPTSLLISWRHPHFPTRYYRITYGETGGNSPVQEFTVPLQPPTATISGLKPGVDYTITGYAVTVERNGRVLMTPISINYRT
10

Follow-up entry: E19 (designed binder, Del 1-8 10Fn3 clone; Flag-tagged in vitro translated protein in the radioactive assay, His6-tagged E. coli protein in BIAcore and cell assays; tags left out) EVVAATPTSLLISWRHPHFPTRYYRITYGETGGNSPVQEFTVPLQPPTATISGLKPGVDYTITGYAVTVERNGRHLMTPISINYRT
12.3

Follow-up entry: M5FL (designed binder, extension and tag left out) VSDVPRDLEVVAATPTSLLISWRHPHFPTRYYRITYGETGGNSPVQEFTVPLQPPLATISGLKPGVDYTITGYAVTKERNGRELFTPISINYRT
3.9

Follow-up entry: E18 (designed binder, Del 1-8 10Fn3 clone; Flag-tagged in vitro translated protein in the radioactive assay, His6-tagged E. coli protein in BIAcore and cell assays; tags left out) EVVAATPTSLLISWRHPHFPTRYYRITYGETGGNSPVQEFTVPLQPPTATISGLKPGVDYTITGYAVTVERNGRELNTPISINYRT
5.4
